Values were extracted from patent US20230265151A1.

targetOrTestSystem: human GLP-1 receptor (human, UniProt P43220 24-463)
protocolNotes: cell-based or functional assay
quantityName: cAMP EC50 (1.0% HSA) (nM)
All answers are understood in nM, so give the number only.

INSERT INTO measurements (binder, quantityname, assayresult) VALUES
  ('YXEGTXTSDXXIXLDXKAQXKFIXXLIXGGPSSGAPPPS (Y-Aib-EGT-αMeF(2F)-TSD-4Pal-Aib-I-αMeL-LD-Orn-K((2-[2-(2-Amino-ethoxy)-ethoxy]-acetyl)2-(γ-Glu)-CO-(CH2)10-CH3)AQ-Aib-K((2-[2-(2-Amino-ethoxy)-ethoxy]-acetyl)2-(γ-Glu)-CO-(CH2)10-CH3)FI-(D-Glu)-αMeY-LI-Orn-GGPSSGAPPPS-NH2) [Example 413]', 'cAMP EC50 (1.0% HSA)', 5.47);

# cAMP EC50 (1.0% HSA) (binder: YXEGTXTSDKXIXLDXKAQXXFIXXLIEGGPSSGAPPPS (Y-Aib-EGT-αMeF(2F)-TSDK((2-[2-(2-Amino-ethoxy)-ethoxy]-acetyl)2-(γ-Glu)-CO-(CH2)10-CH3)-Aib-I-αMeL-LD-Orn-K((2-[2-(2-Amino-ethoxy)-ethoxy]-acetyl)2-(γ-Glu)-CO-(CH2)10-CH3)AQ-Aib-Orn-FI-(D-Glu)-αMeY-LIEGGPSSGAPPPS-NH2) [Example 417] ) is 2.66

# cAMP EC50 (1.0% HSA) (binder: YXEGTXTSDXXIXLDXKAQXXFIXXLIEGGPSSGAPPPSK (Y-Aib-EGT-αMeF(2F)-TSD-4Pal-Aib-I-αMeL-LD-Orn-K((2-[2-(2-Amino-ethoxy)-ethoxy]-acetyl)2-(γ-Glu)-CO-(CH2)10-CH3)AQ-Aib-Orn-FI-(D-Glu)-αMeY-LIEGGPSSGAPPPSK((2-[2-(2-Amino-ethoxy)-ethoxy]-acetyl)2-(γ-Glu)-CO-(CH2)10-CH3)-NH2) [Example 418] ) is 1.72

# cAMP EC50 (1.0% HSA) (binder: YXEGTXTSDXXIXLDXKAQXEFIXXLIKGGPSSGAPPPS (Y-Aib-EGT-αMeF(2F)-TSD-4Pal-Aib-I-αMeL-LD-Orn-K((2-[2-(2-Amino-ethoxy)-ethoxy]-acetyl)2-(γ-Glu)-CO-(CH2)12-CO2H)AQ-Aib-EFI-(D-Glu)-αMeY-LIK((2-[2-(2-Amino-ethoxy)-ethoxy]-acetyl)2-(γ-Glu)-CO-(CH2)12-CO2H)GGPSSGAPPPS-NH2) [Example 358] ) is 65.3

# cAMP EC50 (1.0% HSA) (binder: YXEGTXTSDXXIXLDXQAQXXFIKXLIKGGPSSGAPPPS (Y-Aib-EGT-αMeF(2F)-TSD-4Pal-Aib-I-αMeL-LD-Orn-QAQ-Aib-Orn-FIK((2-[2-(2-Amino-ethoxy)-ethoxy]-acetyl)2-(γ-Glu)-(10-(4-carboxyphenoxy)decanoyl))-αMeY-LIK((2-[2-(2-Amino-ethoxy)-ethoxy]-acetyl)2-(γ-Glu)-(10-(4-carboxyphenoxy)decanoyl))GGPSSGAPPPS-NH2) [Example 440] ) is 2.74

# cAMP EC50 (1.0% HSA) (binder: YXEGTXTSDXXIXLDXKAQXEFIXXLIEGGPSSGAPPPSK (Y-Aib-EGT-αMeF(2F)-TSD-4Pal-Aib-I-αMeL-LD-Orn-K((2-[2-(2-Amino-ethoxy)-ethoxy]-acetyl)2-(γ-Glu)-CO-(CH2)12-CO2H)AQ-Aib-EFI-(D-Glu)-αMeY-LIEGGPSSGAPPPSK((2-[2-(2-Amino-ethoxy)-ethoxy]-acetyl)2-(γ-Glu)-CO-(CH2)12-CO2H)-NH2) [Example 359] ) is 40.5
